Test system: 349418-098-R-PDC complex spheroid viability
Experiment: Anticancer human tumor 349418-098-R-PDC patient-derived lung adenocarcinoma cell line growth inhibition
Conditions: second compound 1 µM; first compound 0.3 µM; active compounds read low
Would you mind telling me the reported viability, T/C of each entry?

Look over these answered cases.
>  <Compound>
CCN(c1cc(-c2ccc(CN3CCOCC3)cc2)cc(C(=O)NCc2c(C)cc(C)[nH]c2=O)c1C)C1CCOCC1 + NC1CC1c1ccc(-c2cccc(O)c2)cc1

>  <Target Or Test System>
349418-098-R-PDC complex spheroid viability

>  <viability, T/C>
89.2%

$$$$
>  <Compound>
COc1cc(C2c3cc4c(cc3C(OC3OC5COC(C)OC5C(O)C3O)C3COC(=O)C23)OCO4)cc(OC)c1O (stereo not drawn) + NC1CCC(NC2CC2c2ccccc2)CC1

>  <Target Or Test System>
349418-098-R-PDC complex spheroid viability

>  <viability, T/C>
16%

$$$$
>  <Compound>
Nc1ccccc1NC(=O)c1ccc(CNC(=O)OCc2cccnc2)cc1 + NC1CCC(NC2CC2c2ccccc2)CC1

>  <Target Or Test System>
349418-098-R-PDC complex spheroid viability;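 also: spheroids exposed to agents for seven days before readout; 100% = DMSO vehicle control wells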

>  <viability, T/C>
46.3%

$$$$
>  <Compound>
O=C(C=Cc1cccc(S(=O)(=O)Nc2ccccc2)c1)NO + NC1CCC(NC2CC2c2ccccc2)CC1

>  <Target Or Test System>
349418-098-R-PDC complex spheroid viability;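 also: spheroids exposed to agents for seven days before readout; 100% = DMSO vehicle control wells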

>  <viability, T/C>
20.8%

$$$$
>  <Compound>
CCc1c2c(nc3ccc(O)cc13)-c1cc3c(c(=O)n1C2)COC(=O)[C@]3(O)CC + NC1CC1c1ccc(-c2cccc(O)c2)cc1

>  <Target Or Test System>
349418-098-R-PDC complex spheroid viability;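 also: spheroids exposed to agents for seven days before readout; 100% = DMSO vehicle control wells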

>  <viability, T/C>
1.92%

$$$$
>  <Compound>
NS(=O)(=O)OCC1CC(n2ccc3c(NC4CCc5ccccc54)ncnc32)CC1O (stereo not drawn) + NC1CC1c1ccc(-c2cccc(O)c2)cc1

>  <Target Or Test System>
349418-098-R-PDC complex spheroid viability;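 also: spheroids exposed to agents for seven days before readout; 100% = DMSO vehicle control wells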

>  <viability, T/C>
11.3%

$$$$

Please give viability, T/C for each item listed below.
1. Nc1ncn(C2CC(O)C(CO)S2)c(=O)n1 (stereo not drawn) + NC1CCC(NC2CC2c2ccccc2)CC1
2. CCN(c1cc(-c2ccc(CN3CCOCC3)cc2)cc(C(=O)NCc2c(C)cc(C)[nH]c2=O)c1C)C1CCOCC1 + NC1CCC(NC2CC2c2ccccc2)CC1

a:
["8.39%", "75.6%"]
